Form field: eAUC0.5-2 h (one value per entry).
Experiment: Pharmacokinetic studies of compounds in mice
Type: in vivo
Details: male mice, intragastric administration 10 mg/kg, plasma

CHEM_SMILES: Cc1ncsc1-c1ccc([C@H](C)NC(=O)[C@@H]2C[C@@H](O)CN2C(=O)[C@@H](NC(=O)COCCCCOc2ccc(-c3ncc(N4C(=S)N(c5ccc(C#N)c(C(F)(F)F)c5F)C(=O)C4(C)C)cc3F)c(C(F)(F)F)c2)C(C)(C)C)cc1
eAUC0.5-2 h, ng·h/mL: 557

CHEM_SMILES: Cc1ncsc1-c1ccc(CNC(=O)[C@@H]2C[C@@H](O)CN2C(=O)[C@@H](NC(=O)COCCCCOc2ccc(-c3ccc(N4C(=S)N(c5ccc(C#N)c(C(F)(F)F)c5F)C(=O)C4(C)C)cn3)cc2C#N)C(C)(C)C)cc1
eAUC0.5-2 h, ng·h/mL: 182

CHEM_SMILES: Cc1ncsc1-c1ccc(CNC(=O)[C@@H]2C[C@@H](O)CN2C(=O)[C@@H](NC(=O)COCCCOc2ccc(-c3ccc(N4C(=S)N(c5ccc(C#N)c(C(F)(F)F)c5F)C(=O)C4(C)C)cn3)cc2F)C(C)(C)C)cc1
eAUC0.5-2 h, ng·h/mL: 240

CHEM_SMILES: Cc1ncsc1-c1ccc([C@H](C)NC(=O)[C@@H]2C[C@@H](O)CN2C(=O)[C@@H](NC(=O)COCCCCOc2ccc(-c3ccc(N4C(=S)N(c5ccc(C#N)c(C(F)(F)F)c5F)C(=O)C4(C)C)cn3)cn2)C(C)(C)C)cc1
eAUC0.5-2 h, ng·h/mL: 1110

CHEM_SMILES: Cc1ncsc1-c1ccc([C@H](CC(=O)N2CCC(C#Cc3ccc(N4C(=S)N(c5ccc(C#N)c(C(F)(F)F)c5F)C(=O)C4(C)C)cc3)CC2)NC(=O)[C@@H]2C[C@@H](O)CN2C(=O)[C@@H](NC(=O)C2(F)CC2)C(C)(C)C)cc1
eAUC0.5-2 h, ng·h/mL: 2253

CHEM_SMILES: Cc1ncsc1-c1ccc([C@H](C)NC(=O)[C@@H]2C[C@@H](O)CN2C(=O)[C@@H](NC(=O)COCCCCCOc2ccc(-c3ncc(N4C(=S)N(c5ccc(C#N)c(C(F)(F)F)c5F)C(=O)C4(C)C)cc3F)cc2F)C(C)(C)C)cc1
eAUC0.5-2 h, ng·h/mL: 383

CHEM_SMILES: CNC(=O)[C@@H]1C[C@@H](O)CN1C(=O)[C@@H](NC(=O)COCCCCOc1ccc(-c2ncc(N3C(=S)N(c4ccc(C#N)c(C(F)(F)F)c4F)C(=O)C3(C)C)cc2F)cc1F)C(C)(C)C
eAUC0.5-2 h, ng·h/mL: 92

CHEM_SMILES: Cc1ncsc1-c1ccc(CNC(=O)[C@@H]2C[C@@H](O)CN2C(=O)[C@@H](NC(=O)COCCCCOc2ccc(-c3ncc(N4C(=S)N(c5ccc(C#N)c(C(F)(F)F)c5F)C(=O)C4(C)C)cc3C(F)(F)F)cc2)C(C)(C)C)cc1
eAUC0.5-2 h, ng·h/mL: 498

----------
Biological target: AR (Homo sapiens, UniProt P10275, T878A)
Sequence (P10275 1-920 T878A): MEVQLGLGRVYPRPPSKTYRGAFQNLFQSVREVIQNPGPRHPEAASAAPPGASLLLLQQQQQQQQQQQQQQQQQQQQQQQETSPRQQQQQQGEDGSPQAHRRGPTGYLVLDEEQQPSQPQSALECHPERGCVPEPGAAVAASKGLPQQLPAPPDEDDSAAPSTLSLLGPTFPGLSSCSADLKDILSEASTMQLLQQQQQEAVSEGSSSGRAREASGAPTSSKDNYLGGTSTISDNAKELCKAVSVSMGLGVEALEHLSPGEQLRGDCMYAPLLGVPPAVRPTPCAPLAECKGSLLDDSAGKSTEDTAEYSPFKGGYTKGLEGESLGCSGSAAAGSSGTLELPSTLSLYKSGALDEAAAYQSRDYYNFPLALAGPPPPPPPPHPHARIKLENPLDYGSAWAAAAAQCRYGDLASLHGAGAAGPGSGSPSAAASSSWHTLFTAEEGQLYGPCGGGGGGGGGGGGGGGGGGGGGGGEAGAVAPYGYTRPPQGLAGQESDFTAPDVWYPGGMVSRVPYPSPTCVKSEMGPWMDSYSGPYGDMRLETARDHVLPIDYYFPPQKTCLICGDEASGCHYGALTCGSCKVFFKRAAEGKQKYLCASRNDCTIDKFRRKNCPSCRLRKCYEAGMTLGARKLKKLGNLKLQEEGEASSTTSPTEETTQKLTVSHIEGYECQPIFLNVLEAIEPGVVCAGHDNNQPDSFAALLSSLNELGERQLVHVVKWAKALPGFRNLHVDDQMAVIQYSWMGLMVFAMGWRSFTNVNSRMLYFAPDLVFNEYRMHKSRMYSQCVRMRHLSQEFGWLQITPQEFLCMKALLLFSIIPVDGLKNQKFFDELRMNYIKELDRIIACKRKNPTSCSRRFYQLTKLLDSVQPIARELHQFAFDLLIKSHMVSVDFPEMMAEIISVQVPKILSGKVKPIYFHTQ
Experiment: Effects of compounds on AR expression in LNCaP cells (ELISA, DC50)
Format: cell-based
Set-up: Measurement of the Effects of Drugs on the Expression of AR in Cells by ELISA Method; endogenous in cells; host or cells: LNCaP
Conditions: 24 hours of drug treatment, AR by ELISA
QUANTITY_MEASURED: DC50 (nM)

COMPOUND: CC(C)(C)[C@H](NC(=O)COCCCCOc1c(F)cc(-c2ncc(N3C(=S)N(c4ccc(C#N)c(C(F)(F)F)c4F)C(=O)C3(C)C)cc2C(F)(F)F)cc1F)C(=O)N1C[C@H](O)C[C@H]1C(=O)NCc1ccc(C(N)=O)cc1
QUANTITY_MEASURED: DC50
INEQUALITY_SIGN: =
REPORTED_RESULT: 370
//
COMPOUND: CC1(C)C(=O)N(c2ccc(C#N)c(C(F)(F)F)c2F)C(=S)N1c1ccc(C2CC2C(=O)NCCCCNC(=O)COc2cccc3c2C(=O)N(C2CCC(=O)NC2=O)C3=O)nc1 (stereo not shown)
QUANTITY_MEASURED: DC50
INEQUALITY_SIGN: >
REPORTED_RESULT: 2000
//
COMPOUND: Cc1ncsc1-c1ccc(CNC(=O)[C@@H]2C[C@@H](O)CN2C(=O)[C@@H](NC(=O)COCCCCOc2ccc(-c3ncc(N4C(=S)N(c5ccc(C#N)c(C(F)(F)F)c5F)C(=O)C4(C)C)cc3F)cc2)C(C)(C)C)cc1
QUANTITY_MEASURED: DC50
INEQUALITY_SIGN: =
REPORTED_RESULT: 37.9
//
COMPOUND: CC(C)(C)[C@H](NC(=O)COCCCCOc1ccc(-c2ccc(N3C(=S)N(c4ccc(C#N)c(C(F)(F)F)c4F)C(=O)C3(C)C)cn2)cc1)C(=O)N1C[C@H](O)C[C@H]1c1nc(-c2cncnc2)c[nH]1
QUANTITY_MEASURED: DC50
INEQUALITY_SIGN: =
REPORTED_RESULT: 107

----------
Target: AR (Homo sapiens, UniProt P10275, T878A)
Experiment: Effects of compounds on AR expression in LNCaP cells (ELISA, DC50)
Type: cell-based
Set-up: Measurement of the Effects of Drugs on the Expression of AR in Cells by ELISA Method; endogenous in cells; host or cells: LNCaP
Details: 24 hours of drug treatment, AR by ELISA
The reader will find reported DC50 values listed item by item below.
QUANTITY_MEASURED: DC50 (nM)

CHEM_SMILES: Cc1ncsc1-c1ccc(CNC(=O)[C@@H]2C[C@@H](O)CN2C(=O)[C@@H](NC(=O)CCCCCC#Cc2ncc(N3C(=S)N(c4ccc(C#N)c(C(F)(F)F)c4F)C(=O)C3(C)C)cc2F)C(C)(C)C)cc1
UNIT_DESCRIPTOR: nM
INEQUALITY_SIGN: >
REPORTED_RESULT: 2000
//
CHEM_SMILES: Cc1ncsc1-c1ccc([C@H](CC(=O)N2CCC(Oc3ccc(-c4ncc(N5C(=S)N(c6ccc(C#N)c(C(F)(F)F)c6F)C(=O)C5(C)C)cc4F)cc3F)CC2)NC(=O)[C@@H]2C[C@@H](O)CN2C(=O)[C@@H](NC(=O)C2(F)CC2)C(C)(C)C)cc1
UNIT_DESCRIPTOR: nM
INEQUALITY_SIGN: =
REPORTED_RESULT: 68

----------
Target: AR (Homo sapiens, UniProt P10275, T878A)
Sequence (P10275 1-920 T878A): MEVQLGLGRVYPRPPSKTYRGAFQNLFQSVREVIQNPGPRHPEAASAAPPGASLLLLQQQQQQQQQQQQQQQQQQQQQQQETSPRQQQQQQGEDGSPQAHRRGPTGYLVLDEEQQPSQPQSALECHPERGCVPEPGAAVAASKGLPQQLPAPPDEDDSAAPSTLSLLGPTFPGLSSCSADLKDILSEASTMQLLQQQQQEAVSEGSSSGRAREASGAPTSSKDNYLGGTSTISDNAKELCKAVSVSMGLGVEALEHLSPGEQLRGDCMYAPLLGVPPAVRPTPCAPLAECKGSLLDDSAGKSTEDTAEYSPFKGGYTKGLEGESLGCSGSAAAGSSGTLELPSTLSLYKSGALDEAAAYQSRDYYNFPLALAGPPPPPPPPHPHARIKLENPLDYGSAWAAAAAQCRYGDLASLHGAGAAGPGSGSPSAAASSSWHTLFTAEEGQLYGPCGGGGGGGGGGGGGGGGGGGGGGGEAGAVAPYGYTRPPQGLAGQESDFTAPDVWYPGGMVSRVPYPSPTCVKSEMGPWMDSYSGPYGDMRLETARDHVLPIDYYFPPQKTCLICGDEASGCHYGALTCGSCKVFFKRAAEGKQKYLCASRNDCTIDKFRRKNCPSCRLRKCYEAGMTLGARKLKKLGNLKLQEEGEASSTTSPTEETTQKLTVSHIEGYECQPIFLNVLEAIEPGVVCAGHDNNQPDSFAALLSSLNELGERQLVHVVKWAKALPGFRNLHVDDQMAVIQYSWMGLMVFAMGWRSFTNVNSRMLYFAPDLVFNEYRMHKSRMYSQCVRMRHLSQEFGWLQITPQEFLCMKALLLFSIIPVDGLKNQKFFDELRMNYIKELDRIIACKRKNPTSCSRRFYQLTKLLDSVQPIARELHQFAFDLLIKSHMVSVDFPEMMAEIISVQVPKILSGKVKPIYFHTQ
Assay: Effects of compounds on AR expression in LNCaP cells (ELISA, DC50)
Type: cell-based
Design: Measurement of the Effects of Drugs on the Expression of AR in Cells by ELISA Method; endogenous in cells; host or cells: LNCaP
Details: 24 hours of drug treatment, AR by ELISA

CHEM_SMILES: Cc1ncsc1-c1ccc(CNC(=O)[C@@H]2C[C@@H](O)CN2C(=O)[C@@H](NC(=O)COCCCCNc2ccc(-c3ccc(N4C(=S)N(c5ccc(C#N)c(C(F)(F)F)c5F)C(=O)C4(C)C)cn3)cc2)C(C)(C)C)cc1
UNIT_DESCRIPTOR: nM
INEQUALITY_SIGN: >
DC50: 2000

CHEM_SMILES: Cc1ncsc1-c1ccc(CNC(=O)[C@@H]2C[C@@H](O)CN2C(=O)[C@@H](NC(=O)COCCOc2c(F)cc(-c3ncc(N4C(=S)N(c5ccc(C#N)c(C(F)(F)F)c5F)C(=O)C4(C)C)cc3F)cc2F)C(C)(C)C)cc1
UNIT_DESCRIPTOR: nM
INEQUALITY_SIGN: =
DC50: 54.6
